Recorded pIC50 for the following compounds
system-tested: Beta Secretase enzyme (BACE) (Homo sapiens, UniProt P56817)
Sequence (P56817 46-501): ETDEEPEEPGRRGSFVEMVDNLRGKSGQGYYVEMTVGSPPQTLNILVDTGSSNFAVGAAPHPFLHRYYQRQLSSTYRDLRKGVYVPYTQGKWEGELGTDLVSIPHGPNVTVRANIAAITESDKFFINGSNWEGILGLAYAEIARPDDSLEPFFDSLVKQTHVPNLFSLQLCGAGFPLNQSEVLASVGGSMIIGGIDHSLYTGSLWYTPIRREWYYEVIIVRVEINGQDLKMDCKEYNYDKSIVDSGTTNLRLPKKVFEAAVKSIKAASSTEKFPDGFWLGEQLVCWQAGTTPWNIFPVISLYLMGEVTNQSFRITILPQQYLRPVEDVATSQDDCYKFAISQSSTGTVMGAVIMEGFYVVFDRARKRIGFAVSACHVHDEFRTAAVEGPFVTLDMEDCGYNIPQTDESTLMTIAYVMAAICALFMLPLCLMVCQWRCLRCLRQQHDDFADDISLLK
measurement-notes: In vitro enzymatic BACE FRET (fluorescence resonance energy transfer) assay;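 note: fluorescence read after 1 h with 50 nM quenched peptide substrate spanning the BACE cleavage site, in pH 4.2 acetate buffer containing 10% DMSO and nonionic detergent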
Format: biochemical
measurement-context: read-out: BACE1 FRET assay (IC50)
Please treat pIC50 as minus the base-10 logarithm of the molar concentration.

CC(=O)N[C@@H](Cc1ccc(F)cc1)[C@H](O)CN[C@H]1CC2(CCC2)Oc2c1cc(CC(C)(C)C)nc2Nc1ccccc1 : 6.70
COCC(=O)N[C@@H](Cc1ccc2c(c1)OCO2)[C@H](O)CN[C@H]1CC2(CCC2)Oc2cnc(CC(C)C)cc21 : 6.93
CC(=O)N[C@@H](Cc1ccc(F)c(-c2ccncc2)c1)[C@H](O)CN[C@H]1CC2(CCC2)Oc2ncc(CC(C)(C)C)cc21 : 7.64

## Input Query pIC50 for "COCC(=O)N[C@@H](Cc1cc(F)cc(F)c1)[C@H](O)CN[C@H]1CC2(CCC2)Oc2c1cc(Cl)cc2-n1ccnc1"
## Output 7.09

## Input For the compound "CC(=O)N[C@@H](Cc1cc(F)cc(-c2ccncc2)c1)[C@H](O)CN[C@H]1CC2(CCC2)Oc2ccc(CC(C)(C)C)cc21" , give its measured pIC50 value.
## Output 7.68

## Input Give the value of pIC50 reported for the following: "COCC(=O)N[C@@H](Cc1cccc(F)c1)[C@H](O)CN[C@H]1CC2(CCC2)Oc2c1cc(C=C(C)C)cc2-n1ccnc1"
## Output 6.59

## Input Complete the entry with pIC50 for "CC(=O)N[C@@H](Cc1ccc(F)c(-c2ccco2)c1)[C@H](O)CN[C@H]1CC2(CCC2)Oc2ccc(CC(C)(C)C)cc21"
## Output 8.22

Reference source for all entries: patent US8163909B2
